target: CYP3A4 (Homo sapiens, UniProt P08684); experiment: in vitro; settings: CYP3A4 enzyme, pH 7.4, probe BOMCC (0.01 mM)
Sequence (P08684 whole entry, species assumed): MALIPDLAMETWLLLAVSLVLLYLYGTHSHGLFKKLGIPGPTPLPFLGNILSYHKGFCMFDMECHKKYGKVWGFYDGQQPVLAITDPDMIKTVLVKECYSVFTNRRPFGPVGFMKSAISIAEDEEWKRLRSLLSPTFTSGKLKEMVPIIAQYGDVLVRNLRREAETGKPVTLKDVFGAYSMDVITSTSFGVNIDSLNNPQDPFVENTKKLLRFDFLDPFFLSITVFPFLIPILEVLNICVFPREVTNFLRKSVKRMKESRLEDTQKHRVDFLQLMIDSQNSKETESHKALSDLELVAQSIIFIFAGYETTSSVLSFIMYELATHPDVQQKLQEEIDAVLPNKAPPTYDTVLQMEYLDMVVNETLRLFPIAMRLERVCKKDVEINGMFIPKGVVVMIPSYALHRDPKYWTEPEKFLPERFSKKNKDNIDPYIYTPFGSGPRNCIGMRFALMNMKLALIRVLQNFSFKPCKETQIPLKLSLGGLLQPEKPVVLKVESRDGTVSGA
OBSERVED_PROPERTY: inhibition at 30 min, 10 µM (%)
Numbers only, in %.

The recorded inhibition at 30 min, 10 µM for `C=CCn1c(=O)c2cnc(Nc3ccc(N4CCN(C)CC4)cc3)nc2n1-c1cccc(C(C)(C)O)n1` is -32.9

* * *

test system: MIA PaCa2 cells; test: Anti-proliferative effect on MIA PaCa2 cells by Cell Titer-Glo; format: cell-based; conditions: Homo sapiens, MIA PaCa-2, 72 h, 3 days, read-out: MIA PaCa 2 (IC50, inhibition of proliferation in vitro)
pIC50: −log10 of the molar value.
Give pIC50 for every item shown.

Here's what some known entries look like.
Just so you know, measured pIC50 for C=CCn1c(=O)c2cnc(Nc3ccc(N4CC5CC(C4)N5CC)cc3)nc2n1-c1cccc(C(C)(C)O)n1 [Compound 65] came out at 6.00 to 7.00

Item: C=CCn1c(=O)c2cnc(Nc3ccc(N4CC5CC(CN(CC(F)(F)F)C5)C4)cc3)nc2n1-c1cccc(C(C)(C)O)n1 [Compound 33] | pIC50: 5.30 to 5.70

Item: C=CCn1c(=O)c2cnc(Nc3ccc(N4CC5CCC(C4)N5C)cc3)nc2n1-c1cccc(C(C)(C)O)n1 [Compound 28] | pIC50: 6.00 to 7.00

Form: molecule = C=CCn1c(=O)c2cnc(Nc3ccc(N4CC5CC(CN(C)C5)C4)cc3)nc2n1-c1cccc(C(C)(C)O)n1 [Compound 23] ; pIC50 = 5.30 to 5.70

Reported pIC50 of C=CCn1c(=O)c2cnc(Nc3ccc(C4CC45C(=O)C4CCN5CC4)cc3)nc2n1-c1cccc(C(C)(C)O)n1 (stereo not shown) [Compound 32] : 5.30 to 5.70

List reported pIC50 for each of these molecules:
1. C=CCn1c(=O)c2cnc(Nc3ccc(N4CC5CCC(C4)O5)cc3)nc2n1-c1cccc(C(C)(C)O)n1 [Compound 17]
2. C=CCn1c(=O)c2cnc(Nc3ccc([C@@H]4C[C@]45C(=O)C4CCN5CC4)cc3)nc2n1-c1cccc(N=S(C)(C)=O)n1 [Compound 47b]
3. C=CCn1c(=O)c2cnc(Nc3ccc4c(c3)C(=O)N(C3CCN(C)CC3)C4)nc2n1-c1cccc(N=S(C)(C)=O)n1 [Compound 24]
4. C=CCn1c(=O)c2cnc(Nc3ccc(N(CC)CC(=O)N4CCN(C)CC4)cc3)nc2n1-c1cccc(C(C)(C)O)n1 [Compound 14]
5. C=CCn1c(=O)c2cnc(Nc3ccc(N(CC)CC(=O)NC)cc3)nc2n1-c1cccc(C(C)(C)O)n1 [Compound 13]

Return:
1: 5.70 to 6.00; 2: 5.30 to 5.70; 3: 6.00 to 7.00; 4: 5.30 to 5.70; 5: 5.00 to 5.30

Provide reported pIC50 for each item, in the same order as listed.
1. C=CCn1c(=O)c2cnc(Nc3ccc(N4CCOC5(CCCN(C)C5)C4)cc3)nc2n1-c1cccc(C(C)(C)O)n1 (stereo not shown) [Compound 46]
2. C=CCn1c(=O)c2cnc(Nc3ccc(N4CC5CC(C4)N5C4CCC4)cc3)nc2n1-c1cccc(C(C)(C)O)n1 [Compound 49]
3. C=CCn1c(=O)c2cnc(Nc3ccc(C4CC45C(=O)C4CCN5CC4)cc3)nc2n1-c1cccc(N=S(C)(C)=O)n1 (stereo not shown) [Compound 47]

Return:
["6.00 to 7.00", "6.00 to 7.00", "6.00 to 7.00"]

* * *

Can you tell me half-life for the items I'm about to list?
assay: Pharmacokinetics on single dose in mice (intravenous and oral); assay type: in vivo, ICR mice; conditions: male, ICR, mouse, plasma, Oral, 10 mg/kg
Give bare numbers, in h.

Guide cases for half-life, answers given:
Input `C=CCn1c(=O)c2cnc(Nc3ccc(N4CC5CC(C4)N5C4CCC4)cc3)nc2n1-c1cccc(C(C)(C)O)n1` . Output half-life: 1.03

half-life measured on `C=CCn1c(=O)c2cnc(Nc3ccc(N4CC5CC(C4)N5C)cc3)nc2n1-c1cccc(C(C)(C)O)n1` = 1.03

Sure, the documented half-life for `C=CCn1c(=O)c2cnc(Nc3ccc(N4CC5CC(C4)N5CCF)cc3)nc2n1-c1cccc(C(C)(C)O)n1` is 0.64

Batch: half-life for all items listed.
1. C=CCn1c(=O)c2cnc(Nc3ccc(N4CC5CC(C4)N5C)cc3)nc2n1-c1ccc2cnn(CC)c2n1
2. C=CCn1c(=O)c2cnc(Nc3ccc(N4CC5CC(C4)N5C)cc3)nc2n1-c1ccc2ccn(CC)c2n1

Return:
1.88
0.95

* * *

test: Pharmacokinetics on single dose in mice (intravenous and oral); format: in vivo, ICR mice; conditions: male, ICR, mouse, plasma, Oral, 10 mg/kg
OBSERVED_PROPERTY: Cmax
Don't forget the unit after the number, please.

Observe how each entry below is paired with its result.
Looking up `C=CCn1c(=O)c2cnc(Nc3ccc(N4CC5CC(C4)N5C)cc3)nc2n1-c1ccc2ccn(CC)c2n1` , I see its Cmax listed as 290 ng/mL

The compound `C=CCn1c(=O)c2cnc(Nc3ccc(N4CC5CC(C4)N5C)cc3)nc2n1-c1cccc(C(C)(C)O)n1` showed Cmax equal to 392 ng/mL

List Cmax for every entry below, keeping the order given.
1. C=CCn1c(=O)c2cnc(Nc3ccc(N4CC5CC(C4)N5C)cc3)nc2n1-c1ccc2cnn(CC)c2n1
2. C=CCn1c(=O)c2cnc(Nc3ccc(N4CC5CC(C4)N5CCF)cc3)nc2n1-c1cccc(C(C)(C)O)n1
3. C=CCn1c(=O)c2cnc(Nc3ccc(N4CC5CC(C4)N5C4CCC4)cc3)nc2n1-c1cccc(C(C)(C)O)n1

Return:
["800 ng/mL", "470 ng/mL", "388 ng/mL"]

* * *

Provide the reported IC50 of each item.
molecular target: Wee1 protein (Homo sapiens, UniProt P30291)
Sequence (P30291 whole entry): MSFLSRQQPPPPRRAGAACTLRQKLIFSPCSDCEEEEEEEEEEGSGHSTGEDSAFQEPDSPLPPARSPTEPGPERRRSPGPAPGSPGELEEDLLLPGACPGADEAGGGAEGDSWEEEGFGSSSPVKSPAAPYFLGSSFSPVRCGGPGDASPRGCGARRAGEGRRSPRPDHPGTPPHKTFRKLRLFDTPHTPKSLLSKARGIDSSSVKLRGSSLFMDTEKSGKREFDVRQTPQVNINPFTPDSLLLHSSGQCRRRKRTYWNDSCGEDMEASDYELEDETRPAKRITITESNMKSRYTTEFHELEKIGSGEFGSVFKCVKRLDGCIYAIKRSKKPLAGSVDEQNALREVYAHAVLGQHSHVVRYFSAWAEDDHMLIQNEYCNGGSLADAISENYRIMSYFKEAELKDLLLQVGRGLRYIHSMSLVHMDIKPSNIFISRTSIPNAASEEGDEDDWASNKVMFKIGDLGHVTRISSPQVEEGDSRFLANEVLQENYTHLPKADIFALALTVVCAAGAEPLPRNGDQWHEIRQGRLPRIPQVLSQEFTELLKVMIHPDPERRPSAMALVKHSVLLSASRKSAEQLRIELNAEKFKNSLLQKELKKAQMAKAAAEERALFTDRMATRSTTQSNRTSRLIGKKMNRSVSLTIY

Example entries and their recorded answers appear below.
Noted IC50 for `C=CCn1c(=O)c2cnc(Nc3ccc(-c4cc(=O)[nH]c5c4N4CCC5CC4)cc3)nc2n1-c1cccc(C(C)(C)O)n1` , tested on Wee1 protein (Homo sapiens, UniProt P30291): 0.01 to 0.1 µM

So the reported IC50 for C=CCn1c(=O)c2cnc(Nc3ccc(N4CCC(N(C)C5CN6CCC5CC6)CC4)cc3)nc2n1-c1cccc(N=S(C)(C)=O)n1 (centres unmarked) , on Wee1 protein (Homo sapiens, UniProt P30291), turned out to be 0.005 to 0.01 µM

Measured on Wee1 protein (Homo sapiens, UniProt P30291), `C=CCn1c(=O)c2cnc(Nc3ccc(N4CCN(C)CC4)cc3)nc2n1-c1cc2ccccc2s1` has a documented IC50 of 0.01 to 0.1 µM

// molecule `C=CCn1c(=O)c2cnc(Nc3ccc(N(CC)CC(=O)NC)cc3)nc2n1-c1cccc(C(C)(C)O)n1` , assay Wee1 protein (Homo sapiens, UniProt P30291), IC50 value: 0.005 to 0.01 µM

For every item in the list below, what is its measured IC50?
1. C=CCn1c(=O)c2cnc(Nc3ccc(N4CC5CC(C4)N5C)cc3)nc2n1-c1cccc(C(C)(C)O)n1
2. C=CCn1c(=O)c2cnc(Nc3ccc(N4CC5CC(C4)N5C4COC4)cc3)nc2n1-c1cccc(C(C)(C)O)n1

Return:
0.005 to 0.01 µM
0.005 to 0.01 µM

Dear reader, for each entry below, please note its IC50.
1. C=CCn1c(=O)c2cnc(Nc3ccc(OC4CN5CCC4CC5)cc3)nc2n1-c1cccc(N=S(C)(C)=O)n1 (centres unmarked)
2. C=CCn1c(=O)c2cnc(Nc3ccc(C4(O)CCN(C)CC4)cc3)nc2n1-c1cccc(C(C)(C)O)n1
3. C=CCn1c(=O)c2cnc(Nc3ccc(-n4cc(N5CCCC5)cn4)cc3)nc2n1-c1cccc(C(C)(C)O)n1
4. C=CCn1c(=O)c2cnc(Nc3ccc(C4CC45C(=O)C4CCN5CC4)cc3)nc2n1-c1cccc(C(C)(C)O)n1 (centres unmarked)

Return:
1: < 0.005 µM; 2: 0.01 to 0.1 µM; 3: 0.01 to 0.1 µM; 4: 0.01 to 0.1 µM

Take each entry in turn and give its IC50.
1. C=CCn1c(=O)c2cnc(Nc3ccc(N4CC5CCC(C4)O5)cc3)nc2n1-c1cccc(C(C)(C)O)n1
2. C=CCn1c(=O)c2cnc(Nc3ccc(N4CC5CC(C4)N5C)cc3)nc2n1-c1ccc2cnn(CC)c2n1 [Compound 53]
3. C=CCn1c(=O)c2cnc(Nc3ccc(N4[C@@H]5C[C@H]4CN(C)C5)cc3)nc2n1-c1cccc(C(C)(C)O)n1

Return:
["0.005 to 0.01 µM", "0.005 to 0.01 µM", "0.01 to 0.1 µM"]

Measured IC50 (Wee1 protein (Homo sapiens, UniProt P30291)), entry `C=CCn1c(=O)c2cnc(Nc3ccc(N4CC5CCC(C4)N5C)cc3)nc2n1-c1cccc(C(C)(C)O)n1` : 0.005 to 0.01 µM

These data points were gathered from patent US20250034151A1.
